test system: NCI-H23 lung; assay: NCI-60 one-dose screen, 48 h (100 = growth as untreated, 0 = no growth, -100 = all killed); details: 10 µM unless noted
About 83,000 compounds went through this panel and 20% of them were active in at least one assay; those are over-represented in the sample as a whole.
Entries are grouped by growth into these classes: class 1 (below 40%), class 2 (40% to below 90%), class 3 (90% or more)

compound | class_assignment
CC1=C2[C@@H](CC1)[C@]1(C)O[C@@](C(C)C)(C[C@H]1OC(=O)CO)[C@H]2OC(=O)CCCc1ccccc1 | class 2
COc1cc2c(cc1OC)CC[N+](CCC[N+](C)(C)C)=C2 | class 3
Cc1ccc(S(=O)(=O)c2nc(-c3ccccc3)oc2S(C)=O)cc1 (centres undefined) | class 2
N#C/C(=C\c1cccc2cnccc12)N1N=NC2C=CC=CC21 (centres undefined) | class 2
C1=C2CCCC3=Cc4ccccc4OC23Oc2ccccc21 | class 2
NCCNc1ccc([N+](=O)[O-])cc1 | class 3

## Task Pick a category. Item: `C#CC#CC#CC#CC#CC#CC#CC#CC[C@@H]1OC[C@H](COC(=O)O[C@@H](C(=O)O[C@H]2C[C@@]3(O)[C@@H](OC(=O)c4ccccc4)[C@@H]4[C@]5(OC(C)=O)CO[C@@H]5C[C@H](O)[C@@]4(C)C(=O)[C@H](OC(C)=O)C(=C2C)C3(C)C)[C@@H](NC(=O)c2ccccc2)c2ccccc2)O1`
## Result class 1

## Task Pick a category. Item: `O=C(O)CCCN1C(=O)CSC1=S`
## Result class 3

====

system: SK-MEL-5 melanoma; experiment: NCI-60 one-dose screen, 48 h; conditions: 10 µM unless noted
About 83,000 compounds went through this panel and 20% of them were active in at least one assay; those are over-represented in the sample as a whole. Active and inactive are the calls of the source. Rule for the calls: active = growth percent below 10; inactive = the rest.
# output must be one of active, inactive

Example entries begin here.
compound | system_tested | class_assignment
CCCC1Cc2cc(-n3nc(C)c4c3CC(C)(C)CC4=O)cc(NC3CCC(O)CC3)c2C(=O)N1 (stereo not given) | SK-MEL-5 melanoma | inactive
COc1cccc(NC(=O)c2sc3nc(C)c(C(=O)c4ccccc4)cc3c2N)c1 | SK-MEL-5 melanoma | inactive
O=C(Cn1cc(CSc2nc3ccccc3o2)nn1)Nc1ccc([N+](=O)[O-])cc1 | SK-MEL-5 melanoma | inactive
CC(=O)[C@H]1CC[C@]2(C)[C@@H]1CC[C@@H]1[C@@]3(C)C/C(=C/c4cccnc4)C(=O)C(C)(C)[C@@H]3CC[C@]12C | SK-MEL-5 melanoma | inactive
COc1cc(CNC(=O)CCCC/C=C/C(C)C)ccc1OCc1cn(-c2ccc(C(F)(F)F)cc2)nn1 | SK-MEL-5 melanoma | inactive

Next item in the queue.
## Task Given `O=C(COc1ccc(/C=C2\Oc3ccccc3C2=O)cc1)Nc1nccs1` , state the outcome it received in this test.
## Result inactive

====

System: UO-31 renal
Assay: NCI-60 one-dose screen, 48 h (100 = growth as untreated, 0 = no growth, -100 = all killed)
Settings: 10 µM unless noted
Procedure: Growth inhibition of the UO-31 human tumor cell line is measured as a screen for anti-cancer activity. Cells are grown in 96 well plates and exposed to the test compound for 48 hours. Compounds are tested at a single concentration, which is 10^-5 M for most compounds. The reported endpoint is percent growth (GI% or GIPRCNT), where numbers from 0 - 100% represent growth inhibition, and numbers from -100% - 0 represent cell death. For example, a value of 40 represents 60% growth inhibition. […]
Compounds without any hit were thinned out: in the full panel of roughly 83,000, 20% have a hit.
quantity: growth (%)
Provide the reading as a plain figure in %.

molecule | system_tested | quantity | value_units | numeric_value
COc1cc(-c2ccc(-c3ccc(C(=N)N)s3)s2)cc(OC)c1OC | UO-31 renal | growth | % | 67.1
Cn1cc(-c2nc(-c3c[nH]c4c(Cl)nccc34)cs2)c2ccccc21 | UO-31 renal | growth | % | 94.6
C#C[C@]1(O)CC[C@H]2[C@@H]3CC=C4c5sc(-c6cccc(C)c6)nc5CC[C@]4(C)[C@H]3CC[C@@]21C | UO-31 renal | growth | % | 34.1
C=CCn1c(SCC(=O)Nc2ccc(C(=O)/C=C/c3cc(OC)c(OC)c(OC)c3)cc2)nnc1-c1cc(-c2ccc(S(N)(=O)=O)cc2)nc2ccccc12 | UO-31 renal | growth | % | 77.1
CN1CCN(CC(=O)N(C)c2ccc(N=C(c3ccccc3)c3c(O)[nH]c4ccc([N+](=O)[O-])cc34)cc2)CC1 | UO-31 renal | growth | % | 28.8
CN1CCN(CCCNC(=O)c2c3c(n4ccccc24)C(=O)c2ncccc2C3=O)CC1 | UO-31 renal | growth | % | 32.2
COc1ccc(Nc2nccc(Nc3ccc4[nH]ncc4c3)n2)cc1 | UO-31 renal | growth | % | 15.9
Cc1ccc2c(c1)CC(O)CC1C(=O)N(CCO)CC(=O)N21 (centres undefined) | UO-31 renal | growth | % | 95.8

Now consider a different molecule.
## Task Please indicate growth recorded for `C=CCNc1ccc2c3c(cccc13)C(=O)N(CC=C)C2=O`
## Result 71.5

====

tested on: HOP-62 NSCLC; test: NCI-60 one-dose screen, 48 h (100 = growth as untreated, 0 = no growth, -100 = all killed); conditions: 10 µM unless noted
This is part of a sample that, as a whole, favours compounds with a hit. Of some 83,000 tested, about 20% had one in any assay.
Response field label: string, one of y (growth strictly below 80%) or n.

Example entries begin here.
compound | system_tested | class_assignment
Cc1ccc2c(n1)C[C@H](C(C)(C)O)CC[C@H]2C | HOP-62 NSCLC | n
COc1cccc(C2C3=C(COC3=O)N(CCO)c3cc4c(cc32)OCCO4)c1 (stereo not given) | HOP-62 NSCLC | y
CN(C)C(=O)OCc1ccc2c(Cl)cc(Cl)c(O)c2n1 | HOP-62 NSCLC | y
Cc1ccc(C2(C)NC(=O)N(CC(=O)Nc3cccc(C)c3)C2=O)cc1 (stereo not given) | HOP-62 NSCLC | n

## Task Given `CC(C)n1nc(-c2ccc3oc(N)nc3c2)c2c(N)ncnc21` , is recorded growth strictly lower than 80%?
## Result y

## Task Given `CCOC(=O)C#Cc1c(CC(=O)OCC)nnn1[C@H]1O[C@@H](CO)[C@@H]2OC(C)(C)O[C@@H]21` , is recorded growth strictly lower than 80%?
## Result n

## Task Given `N#C/C(=N\Nc1ccccc1)C(=O)Nc1cc(-c2ccccc2)nn1-c1ccccc1` , is recorded growth strictly lower than 80%?
## Result y

## Task Given CCn1c2ccccc2c2cc(C(O)c3cccc4ncccc34)ccc21 (stereo not given) , is recorded growth strictly lower than 80%?
## Result y

====

tested on: SK-MEL-5 melanoma; assay: NCI-60 one-dose screen, 48 h; conditions: 10 µM unless noted
Compounds without any hit were thinned out: in the full panel of roughly 83,000, 20% have a hit. Calls of active or inactive are those of the source. The calls were made as follows: active = growth percent below 10; inactive = the rest.
# output must be one of 1 = active, -1 = inactive

## Task Given `CC(C)c1nc(N(C)S(C)(=O)=O)nc(-c2ccc(F)cc2)c1/C=C/C(=O)C[C@@H](O)CC(=O)O` , state the outcome it received in this test.
## Result -1

## Task Given `COc1nc2ccccc2cc1/C=[N+](\[O-])c1ccccc1` , state the outcome it received in this test.
## Result -1

## Task Given `CCCCCCCCNC(=O)[C@@H](N)CSCOC(C)=O` , state the outcome it received in this test.
## Result -1

## Task Given `Clc1ccc(C2=Nn3c(nnc3-c3cc(Cl)cc(Cl)c3Cl)SC2)cc1` , state the outcome it received in this test.
## Result 1

## Task Given `Nc1ncc(-c2ccc3ncnc(N4CCc5cc(F)c(Cl)cc54)c3c2)cc1C=O` , state the outcome it received in this test.
## Result 1

====

test system: ACHN renal; assay: NCI-60 one-dose screen, 48 h; conditions: 10 µM unless noted
About 83,000 compounds went through this panel and 20% of them were active in at least one assay; those are over-represented in the sample as a whole. The source made the active and inactive calls. How the source made its calls: active means growth percent below 10; inactive means the rest.
# output must be one of y for active, n for inactive

Example entries begin here.
compound | system_tested | class_assignment
C=C(C[n+]1ccccc1)[C@@H]1CC[C@]2(C(=O)OC)CC[C@]3(C)[C@H](CC[C@@H]4[C@@]5(C)CCC(=O)C(C)(C)[C@@H]5CC[C@]43C)[C@@H]12 | ACHN renal | n
COc1cc2cc(Oc3ccc(NC(=O)Nc4ccc(Cl)c(Cl)c4)cc3)c(C)nc2cc1OCCN1CCCCC1 | ACHN renal | n
Fc1ccc(/C=C/c2cc(/C=C/c3ccc(F)cc3)n(-c3cc(F)cc(F)c3)n2)cc1 | ACHN renal | n
O=C1/C(=C/c2cccc([N+](=O)[O-])c2)COc2ccc(O)c(O)c21 | ACHN renal | y
Cc1ccccc1NC(=O)Cn1cc(CN2CCN(c3ccnc4cc(Cl)ccc34)CC2)nn1 | ACHN renal | n
Cc1cc(C(=O)Nc2cc(Nc3ncccc3-c3ncnc4nc[nH]c34)ccc2F)cc(C(C)(C)C#N)c1 | ACHN renal | n
c1ccc(-c2cn3nc(-c4c[nH]c5ccccc45)sc3n2)cc1 | ACHN renal | n
c1ccc(-c2nc(N3CCNCC3)c3oc(-c4ccccc4)nc3n2)cc1 | ACHN renal | y

## Task Given `NS(=O)(=O)Oc1cccc(-c2nc3sccn3c2-c2ccccc2)c1` , state the outcome it received in this test.
## Result n

## Task Given O=c1n(C2OC(CO)C(O)C2O)ccc2nccn12 (stereo not given) , state the outcome it received in this test.
## Result n

## Task Given `C=CCn1c(SCC(=O)Nc2ccc(C(=O)/C=C/c3ccc(Cl)cc3)cc2)nnc1-c1ccc(Cl)c(Cl)c1` , state the outcome it received in this test.
## Result n

## Task Given CC(Cc1cccc2ccccc12)C(N)=O (stereo not given) , state the outcome it received in this test.
## Result n

## Task Given `COc1ccc(C(=O)/C=C/c2ccc(Cl)cc2)cc1S(N)(=O)=O` , state the outcome it received in this test.
## Result n

## Task Given `Nc1n[nH]c2cccc(C#Cc3cccc(C(=O)Nc4ccc(Cl)c(C(F)(F)F)c4)c3)c12` , state the outcome it received in this test.
## Result n

## Task Given COc1cc(C2=Nc3c(N)nc(N)nc3NC(c3cccc(Nc4ccnc5cc(C(F)(F)F)ccc45)c3)C2)cc(OC)c1OC (stereo not given) , state the outcome it received in this test.
## Result n

## Task Given `COc1cc(NC(=O)c2cncnc2Nc2ccc3c(ccn3Cc3cccc(F)c3)c2)cc(OC)c1` , state the outcome it received in this test.
## Result n

## Task Given `COc1ccc(Nc2nc(Nc3cc(C)[nH]n3)c3cc(OC)c(OC)cc3n2)cc1` , state the outcome it received in this test.
## Result y

## Task Given CCCCC#Cc1c(I)n(C2OC(CO[Si](C)(C)C(C)(C)C)C3OC(C)(C)OC32)c(=O)[nH]c1=O (stereo not given) , state the outcome it received in this test.
## Result n

## Task Given `Cn1ccnc1C(=O)/C=C/c1ccc(C(=O)Nc2ccccc2F)cc1` , state the outcome it received in this test.
## Result n

## Task Given C=C1CC[C@@H]2[C@](C)(COC(C)=O)[C@H](OC(C)=O)CC[C@@]2(C)[C@@H]1CC(Nc1ccc(S(=O)(=O)Nc2nccc(C)n2)cc1)C1=CCOC1=O (stereo not given in full) , state the outcome it received in this test.
## Result y

## Task Given COC(CCP(=O)(c1ccccc1)c1ccccc1)(C(=O)c1ccccc1)c1ccccc1 (stereo not given) , state the outcome it received in this test.
## Result n

## Task Given `C#CCOc1cc(/C=N/Nc2nc(-c3ccc(OC)cc3)cs2)ccc1O` , state the outcome it received in this test.
## Result n

## Task Given `CC1(C)CCC[C@]23C(=O)O[C@](O)(C(=O)C4=C[C@@](C)(/C=C/CCCc5ccc6ccc7cccc8ccc5c6c78)CC[C@@]42O)[C@@H]13` , state the outcome it received in this test.
## Result y

## Task Given `C=C(C)[C@@H]1CC[C@]2(COC(=O)c3cccnc3)CC[C@]3(C)[C@H](CC[C@@H]4[C@@]5(C)CCCN(C(=O)c6cccnc6)C(C)(C)[C@@H]5CC[C@]43C)[C@@H]12` , state the outcome it received in this test.
## Result n

## Task Given COc1ccc(C(=O)C2OC3=C(C(=O)CC(C)(C)C3)C2c2cccc(Oc3ccccc3)c2)cc1 (stereo not given) , state the outcome it received in this test.
## Result n

## Task Given CCOC(=O)C1=C(C)N(C)C(=O)N(C)C1c1ccccc1 (stereo not given) , state the outcome it received in this test.
## Result n

## Task Given `CCCCCCC/C=N/NC(=O)c1ccc(-n2cc(-c3ccccc3)nn2)cc1` , state the outcome it received in this test.
## Result n

## Task Given `Cc1c2cnccc2c(C)c2c1c1cc(C(=O)O)ccc1n2C` , state the outcome it received in this test.
## Result y

## Task Given CO[C@H]1/C=C/O[C@@]2(C)Oc3c(C)c(O)c4c(O)c(c5c(nc6cc(C)ccn65)c4c3C2=O)NC(=O)/C(C)=C\C=C\[C@H](C)[C@H](O)[C@@H](C)C(O)[C@@H](C)[C@H](OC(C)=O)[C@@H]1C (stereo not given in full) , state the outcome it received in this test.
## Result n

## Task Given `COc1nc2ccccc2cc1/C=[N+](\[O-])c1ccccc1` , state the outcome it received in this test.
## Result n

Provenance of the data: PubChem BioAssay (NCI)
